Here the recorded mass density is given for each entry.
# conditionsUsed: 298.15 K; 101.33 kPa; Liquid; Vibrating tube method
# number only, unit kg/m3 dropped from output

Asked: Return reported mass density; argument: C1CCCCC1 [cyclohexane]
Given back: 773.5

Asked: Return reported mass density; argument: CO [methanol]
Given back: 786.2

Asked: Return reported mass density; argument: CC(C)O [propan-2-ol]
Given back: 780.8

Asked: Return reported mass density; argument: C=C(C)CC(C)(C)C [2,4,4-trimethyl-1-pentene]
Given back: 710.7
